Where do these numbers come from? They come from patent US8697694B2.

# Test system: HCV replicon cells
# Protocol notes: Cell-based HCV replicon assay (replicon RNA level by real time PCR, Taqman)
# Test parameters: Hepatitis C virus, 72 h, HCV replicon cells, harvested day 3, replicon RNA by real time PCR; reported as range class; read-out: EC90 (μM) range
Readout: EC90

Query block: Under HCV replicon cells: EC90 value of CCOCCNc1nc(C)c(-c2nc3ccccc3s2)c(N[C@@H]2C[C@H](CO)[C@@H](O)[C@H]2O)n1 ?
Result block: < 0.5 µM

Query block: And the next one, Nc1nc(Cl)c(-c2ccc3c(c2)OCO3)c(N[C@@H]2C[C@H](CO)[C@@H](O)[C@H]2O)n1 ?
Result block: > 5 µM

Query block: And the next one, Nc1nc(Cl)c(-c2cc3cc(C(=O)N4CCOCC4)ccc3o2)c(N[C@@H]2C[C@H](CO)[C@@H](O)[C@H]2O)n1 ?
Result block: > 5 µM

Query block: And the next one, OC[C@H]1C[C@@H](Nc2nc(NCC(F)(F)F)nc(Cl)c2-c2nc3ccccc3s2)[C@H](O)[C@@H]1O ?
Result block: < 0.5 µM

Query block: And the next one, CN(C)c1nc(Cl)c(-c2nc3ccccc3o2)c(N[C@@H]2C[C@H](CO)[C@@H](O)[C@H]2O)n1 ?
Result block: 0.5 to 5 µM

Query block: And the next one, Nc1nc(Cl)c(-c2nc3ccc(F)cc3s2)c(N[C@@H]2C[C@H](CO)[C@@H](O)[C@H]2O)n1 ?
Result block: 0.5 to 5 µM

Query block: And the next one, CCNc1nc(Cl)c(-c2nc3ccccc3s2)c(N[C@@H]2C[C@H](CO)[C@@H](O)[C@H]2O)n1 ?
Result block: < 0.5 µM
